Experiment: CHI LogD measurement
Format: physicochemical
Details: chromatographic hydrophobicity index
Quantity: chromatographic logD

Worked cases, answers included:
Data request: Provide one value: measured chromatographic logD of `CN(C)c1nc(Nc2ccc(F)c(F)c2)nc2c1cnn2C`
Data returned: 2.88

Data request: Return value of chromatographic logD for input `COCCNc1nc(Nc2ccc(F)c(F)c2)nc2c1cnn2C` , no commentary.
Data returned: 2.49

Data request: Indicate its recorded chromatographic logD; the compound in question is Cn1ncc2c(NC3CCCCC3O)nc(Nc3ccc(F)c(F)c3)nc21 (centres unmarked)
Data returned: 2.5

A = COC(=O)[C@H](Nc1nc(Nc2ccc(F)c(F)c2)nc2c1cnn2C)C(C)C
B = CC(C)Nc1nc(NCCO)c2cnn(C)c2n1
Data request: Returns the identifier with the smallest measured chromatographic logD among A and B . Choose, then provide that item's label.
Data returned: B
(B: 0.63, A: 6.22)

P = Cn1ncc2c(Nc3ccc(F)c(F)c3)nc(Nc3ccc(F)c(F)c3)nc21
Q = CN(c1cccc(F)c1)c1nc(NCCO)c2cnn(C)c2n1
Data request: Which numeric chromatographic logD is bigger, that of P or that of Q ? Response format: the label of the selected entry.
Data returned: P

a = Cn1ncc2c(NCCO)nc(NC3CCCCC3)nc21
b = COC(=O)[C@@H](CO)Nc1nc(Nc2ccc(F)c(F)c2)nc2c1cnn2C
Data request: Lower value for measured chromatographic logD? Options: a , b State the label of the item chosen.
Data returned: a
(a: 1.74, b: 3.78)

Source listed as paper PMC7294809.
